assay_method_text: amyloid nucleation score (Sup35N fusion, yeast selection) (log enrichment); library NNK2; higher = more nucleation; inactive = no reads after selection;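 further: zero at mode of non-aggregating sequences after 7 days selection at 30°C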
observation_type: amyloid nucleation score
Answer using only a numeral; do not append any unit.

substance	amyloid nucleation score
ICACKSY	5.28
RFQWSCEVRESPPLNVDLMG	1.41
CIVSVNERRVVFGAVNTEFR	4.79
VFWGILMRGVRRTFSDCAGT	-1.47
RCTRSR	3.4
LSWYLTYTRLTSLVG	-0.097

// field: amyloid nucleation score; key: CEDSCSSCNGILLDVREERS ; value = 1.89

Entry RLSDLTQVLLDSLTRCGWWG ; amyloid nucleation score = 0.841

Looking up VTMIPA , I found its amyloid nucleation score recorded as -0.207

# amyloid nucleation score (substance: LKGSRNRATSDKGWKEG ) is 0.306

Lookup result for SRVTYMRATDSMTTVVFWGV ; measured amyloid nucleation score: 5.31

So, CRLLCVIGLYVDNLGPPLAR ? Its amyloid nucleation score was -0.044

Measured values drawn from the supplement of paper PMC12042874 for this set.
